system: NCI-H226; test: NCI tumour cell line growth inhibition, 48 h
The source made the active and inactive calls. No stated cut-off is given here; in the data, active = GI50 up to about 1.1 µM and inactive = higher.
Entries annotated with measured GI50

Answered examples (2):
O=C1C=C(N2CCCC2)C(=O)c2c(O)ccc(O)c21: > 10 µM (inactive)
O=c1nc(NC(c2ccccc2)(c2ccccc2)c2ccccc2)ccn1CCCl: 21.2 µM (inactive)

### Prompt Query: GI50; subject: CC(=O)Nc1ccc(N2C(=O)/C(=C\c3cccc(Oc4ccccc4)c3)SC2c2ccccc2)cc1 (stereo not drawn)
### Response 22 µM (inactive)

### Prompt Another: "CNC(=O)/C(C#N)=C(\N)N1CCCC1"
### Response > 100 µM (inactive)

### Prompt Query C[C@]12CCC(=O)C=C1CC[C@@H]1C2CC[C@]2(C)Nc3c(cnn3-c3ccccc3)CC12 (stereo partly drawn) next
### Response > 100 µM (inactive)

### Prompt Repeat for the following compound: CC1SC2=NC3=C(c4ccccc4C3=O)C(c3ccc(Cl)cc3)N2C1=O (stereo not drawn)
### Response > 100 µM (inactive)

### Prompt What would you report for C=C(Cl)C(Br)(CBr)CCC(Br)C(C)(C)Br (stereo not drawn) ?
### Response > 10 µM (inactive)

### Prompt Would you kindly repeat that for "COc1ccc(Br)c(N/N=C2\CCCNC2=O)c1" ?
### Response > 100 µM (inactive)

### Prompt Now the same for "CC(C)=NOC(=O)Nc1cccc2c1OCO2"
### Response > 100 µM (inactive)

### Prompt // query: C=C1C(=O)OC2CC1CCC1(C)OC1CCC(C)=CCCC2(C)O (stereo not drawn)
### Response 3.61 µM (inactive)

### Prompt Also, "CO[C@]1(c2ccc([N+](=O)[O-])cc2)Oc2ccccc2C(=O)[C@@]1(Nc1ccc(C=O)cc1)OC" please.
### Response > 10 µM (inactive)

### Prompt Also need CC(=O)OCC1OC(n2ccc(=O)[nH]c2=O)C(OC(C)=O)C(OC(C)=O)C1OC(C)=O (stereo not drawn) , thanks.
### Response 9.16 µM (inactive)

### Prompt Same thing, different compound: "CC1=C[C@H]([C@H]2C=C(C)C(C(N)=O)=CN2Cc2c(Cl)cccc2Cl)N(Cc2c(Cl)cccc2Cl)C=C1C(N)=O"
### Response > 75 µM (inactive)

### Prompt Then what about the compound CC(O)CCC(=O)c1ccoc1 (stereo not drawn) ?
### Response 5610 µM (inactive)

### Prompt Another compound: "ClCc1ccc2ccc3ccc(CCl)nc3c2n1"
### Response 2.28 µM (inactive)

### Prompt Okay, and "CCCCN(CCCC)C(=O)C(=O)CC(=O)c1ccc(Br)cc1" ?
### Response > 100 µM (inactive)

### Prompt Moving on to the next compound: "O=C1C=CC(=O)c2c(Cl)ccc(O)c21"
### Response > 91.2 µM (inactive)

### Prompt // query: c1ccc(C(CCN2CCCC2)c2ccccn2)cc1 (stereo not drawn)
### Response > 100 µM (inactive)

---

system: HOP-62; assay: NCI tumour cell line growth inhibition, 48 h
Calls of active or inactive are those of the source. No stated cut-off is given here; in the data, active = GI50 up to about 1.1 µM and inactive = higher.
Listing of entries alongside the reported GI50.

O=C1N=C(S)NNC12c1ccccc1-c1ccccc12: > 10 µM (inactive)
CC(O)CCC(=O)c1ccoc1 (configuration not stated): 6930 µM (inactive)
COc1ccc(-c2oc3c(OC)c(OC)c(OC)c(O)c3c(=O)c2OC)cc1OC: 19.5 µM (inactive)
OCC12C3C4C5C3C1C5C42 (configuration not stated): > 100 µM (inactive)
COC(=O)[C@@H](Cc1ccccc1)N1O[C@]12CCCC[C@@H]2NC(=O)OC(C)(C)C (some centres not stated): 18.6 µM (inactive)

### Prompt Entry COc1ccc(C2Oc3c(cccc3-c3c(-c4ccc(O)cc4)oc4cc(O)cc(O)c4c3=O)C(=O)C2O)cc1O (configuration not stated) : reported GI50 = ?
### Response > 100 µM (inactive)

### Prompt What do you have for "N#Cc1ccccc1Nc1ccccc1S" ?
### Response 46.7 µM (inactive)

### Prompt Note, next up: "COc1ccc2c(c1)/C(=C\c1c(Cl)nc3sc(C)cn13)C(=O)N2"
### Response 6.4 µM (inactive)

### Prompt Repeat for the following compound: COC1=CC(=O)C2C(C1=O)[C@@H]1c3ccccc3C[C@H]21 (some centres not stated)
### Response > 100 µM (inactive)

### Prompt # iterate: O=P1(Oc2ccccc2)N=P(c2ccccc2)(c2ccccc2)C=C(c2ccc(Cl)cc2)N1 (configuration not stated)
### Response 16.4 µM (inactive)

### Prompt Next compound: "CCN(CC)CCCN(c1cc(OC)cc2nccnc12)S(=O)(=O)c1ccc(C)cc1"
### Response > 100 µM (inactive)

### Prompt "CO[C@]1(c2ccc([N+](=O)[O-])cc2)Oc2ccccc2C(=O)[C@@]1(Nc1ccc(C=O)cc1)OC" , same question.
### Response > 10 µM (inactive)
